Experiment: activity coefficient (dimensionless); of the first substance listed, at infinite dilution; xn = mol fraction of the nth substance listed
Conditions: 328.15 K; 101 kPa; Liquid; Chromatography; x1 = 0
READOUT_KIND: activity coefficient
Give bare numbers.

Sample records with activity coefficient:
[[record]]
compound = "c1ccsc1 [thiophene] + CC[S+](CC)CC.O=S(=O)([N-]S(=O)(=O)C(F)(F)F)C(F)(F)F"
test_result = 0.951

[[record]]
compound = "CCCCCCCCCC [decane] + CC[S+](CC)CC.O=S(=O)([N-]S(=O)(=O)C(F)(F)F)C(F)(F)F"
test_result = 89.6

[[record]]
compound = "Cc1ccc(C)cc1 [1,4-dimethylbenzene] + CC[S+](CC)CC.O=S(=O)([N-]S(=O)(=O)C(F)(F)F)C(F)(F)F"
test_result = 2.32

[[record]]
compound = "CCCCCCCC [octane] + CC[S+](CC)CC.O=S(=O)([N-]S(=O)(=O)C(F)(F)F)C(F)(F)F"
test_result = 43.6

[[record]]
compound = "C1CCCCC1 [cyclohexane] + CC[S+](CC)CC.O=S(=O)([N-]S(=O)(=O)C(F)(F)F)C(F)(F)F"
test_result = 12.4

[[record]]
compound = "Cc1ccccc1 [toluene] + CC[S+](CC)CC.O=S(=O)([N-]S(=O)(=O)C(F)(F)F)C(F)(F)F"
test_result = 1.6


I'm hoping you can list activity coefficient for every compound here, please.
1. CCCCO [butan-1-ol] + CC[S+](CC)CC.O=S(=O)([N-]S(=O)(=O)C(F)(F)F)C(F)(F)F
2. Cc1ccccc1C [1,2-dimethylbenzene] + CC[S+](CC)CC.O=S(=O)([N-]S(=O)(=O)C(F)(F)F)C(F)(F)F
3. C#CCCC [1-pentyne] + CC[S+](CC)CC.O=S(=O)([N-]S(=O)(=O)C(F)(F)F)C(F)(F)F
4. C1CCOC1 [tetrahydrofuran] + CC[S+](CC)CC.O=S(=O)([N-]S(=O)(=O)C(F)(F)F)C(F)(F)F
5. CCCCCCCCC [nonane] + CC[S+](CC)CC.O=S(=O)([N-]S(=O)(=O)C(F)(F)F)C(F)(F)F
6. CCCCCCC [heptane] + CC[S+](CC)CC.O=S(=O)([N-]S(=O)(=O)C(F)(F)F)C(F)(F)F
7. CCCCCC [hexane] + CC[S+](CC)CC.O=S(=O)([N-]S(=O)(=O)C(F)(F)F)C(F)(F)F

Marked response:
1. 2.66
2. 2.09
3. 2.54
4. 0.834
5. 61.8
6. 30.5
7. 22.1

I'm hoping you can list activity coefficient for every compound here, please.
1. CCc1ccccc1 [ethylbenzene] + CC[S+](CC)CC.O=S(=O)([N-]S(=O)(=O)C(F)(F)F)C(F)(F)F
2. C=CCCCCCC [oct-1-ene] + CC[S+](CC)CC.O=S(=O)([N-]S(=O)(=O)C(F)(F)F)C(F)(F)F

Marked response:
2.44
21.8

----------
Assay: activity coefficient (dimensionless); of the first substance listed, at infinite dilution; xn = mol fraction of the nth substance listed
Details: 338.15 K; 101 kPa; Liquid; Chromatography; x1 = 0
READOUT_KIND: activity coefficient
Give bare numbers.

Sample records with activity coefficient:
[[record]]
compound = "O [water] + CC[S+](CC)CC.O=S(=O)([N-]S(=O)(=O)C(F)(F)F)C(F)(F)F"
readout_kind = "activity coefficient"
test_result = 2.63

[[record]]
compound = "CCCCCCCCC [nonane] + CC[S+](CC)CC.O=S(=O)([N-]S(=O)(=O)C(F)(F)F)C(F)(F)F"
readout_kind = "activity coefficient"
test_result = 55.5

[[record]]
compound = "COC(C)(C)C [2-methoxy-2-methylpropane] + CC[S+](CC)CC.O=S(=O)([N-]S(=O)(=O)C(F)(F)F)C(F)(F)F"
readout_kind = "activity coefficient"
test_result = 3

[[record]]
compound = "C#CCCC [1-pentyne] + CC[S+](CC)CC.O=S(=O)([N-]S(=O)(=O)C(F)(F)F)C(F)(F)F"
readout_kind = "activity coefficient"
test_result = 2.54

[[record]]
compound = "C1CCCCCCC1 [cyclooctane] + CC[S+](CC)CC.O=S(=O)([N-]S(=O)(=O)C(F)(F)F)C(F)(F)F"
readout_kind = "activity coefficient"
test_result = 20.4

[[record]]
compound = "CCCO [propan-1-ol] + CC[S+](CC)CC.O=S(=O)([N-]S(=O)(=O)C(F)(F)F)C(F)(F)F"
readout_kind = "activity coefficient"
test_result = 1.85


The record that follows has no activity coefficient shown yet.
Exam item: Any idea what activity coefficient was measured for C1CCCCC1 [cyclohexane] + CC[S+](CC)CC.O=S(=O)([N-]S(=O)(=O)C(F)(F)F)C(F)(F)F ?
Marked response: 11.6

----------
Test: activity coefficient (dimensionless); of the first substance listed, at infinite dilution; xn = mol fraction of the nth substance listed
Details: 368.15 K; 101 kPa; Liquid; Chromatography; x1 = 0
READOUT_KIND: activity coefficient
Give bare numbers.

Sample records with activity coefficient:
[[record]]
molecule = "CCc1ccccc1 [ethylbenzene] + CC[S+](CC)CC.O=S(=O)([N-]S(=O)(=O)C(F)(F)F)C(F)(F)F"
readout_kind = "activity coefficient"
test_result = 2.45

[[record]]
molecule = "CCCCCCCC [octane] + CC[S+](CC)CC.O=S(=O)([N-]S(=O)(=O)C(F)(F)F)C(F)(F)F"
readout_kind = "activity coefficient"
test_result = 30.8

[[record]]
molecule = "CCCCCC [hexane] + CC[S+](CC)CC.O=S(=O)([N-]S(=O)(=O)C(F)(F)F)C(F)(F)F"
readout_kind = "activity coefficient"
test_result = 16.9


The record that follows has no activity coefficient shown yet.
Exam item: Any idea what activity coefficient was measured for C=CCCCC [hex-1-ene] + CC[S+](CC)CC.O=S(=O)([N-]S(=O)(=O)C(F)(F)F)C(F)(F)F ?
Marked response: 8.94

----------
Test: activity coefficient (dimensionless); of the first substance listed, at infinite dilution; xn = mol fraction of the nth substance listed
Conditions: 308.15 K; 101 kPa; Liquid; Chromatography; x1 = 0
Classify: Yes when activity coefficient is strictly less than 5; No when activity coefficient is not.

Exam item: Decide: activity coefficient of CCCCCC [hexane] + CC[S+](CC)CC.O=S(=O)([N-]S(=O)(=O)C(F)(F)F)C(F)(F)F strictly below 5?
Marked response: No

----------
Please provide measured activity coefficient for the entries that follow.
Experiment: activity coefficient (dimensionless); of the first substance listed, at infinite dilution; xn = mol fraction of the nth substance listed
Conditions: 298.15 K; 101 kPa; Liquid; Chromatography; x1 = 0
Numbers only.

Sample records with activity coefficient:
[[record]]
compound = "C=CCCCC [hex-1-ene] + CC[S+](CC)CC.O=S(=O)([N-]S(=O)(=O)C(F)(F)F)C(F)(F)F"
test_result = 12.5

[[record]]
compound = "C#CCCCCC [1-heptyne] + CC[S+](CC)CC.O=S(=O)([N-]S(=O)(=O)C(F)(F)F)C(F)(F)F"
test_result = 5.34


I'm hoping you can list activity coefficient for every compound here, please.
1. C=CCCCCCC [oct-1-ene] + CC[S+](CC)CC.O=S(=O)([N-]S(=O)(=O)C(F)(F)F)C(F)(F)F
2. CCCCCCCC [octane] + CC[S+](CC)CC.O=S(=O)([N-]S(=O)(=O)C(F)(F)F)C(F)(F)F
3. c1ccsc1 [thiophene] + CC[S+](CC)CC.O=S(=O)([N-]S(=O)(=O)C(F)(F)F)C(F)(F)F

Marked response:
1: 27; 2: 59.6; 3: 0.926

I'm hoping you can list activity coefficient for every compound here, please.
1. CCCCCC [hexane] + CC[S+](CC)CC.O=S(=O)([N-]S(=O)(=O)C(F)(F)F)C(F)(F)F
2. CCO [ethanol] + CC[S+](CC)CC.O=S(=O)([N-]S(=O)(=O)C(F)(F)F)C(F)(F)F
3. CCc1ccccc1 [ethylbenzene] + CC[S+](CC)CC.O=S(=O)([N-]S(=O)(=O)C(F)(F)F)C(F)(F)F

Marked response:
28.6
2.15
2.42

----------
Test: activity coefficient (dimensionless); of the first substance listed, at infinite dilution; xn = mol fraction of the nth substance listed
Conditions: 318.15 K; 101 kPa; Liquid; Chromatography; x1 = 0
READOUT_KIND: activity coefficient

Sample records with activity coefficient:
[[record]]
compound = "CCCCCCCCCC [decane] + CC[S+](CC)CC.O=S(=O)([N-]S(=O)(=O)C(F)(F)F)C(F)(F)F"
test_result = 101

[[record]]
compound = "CO [methanol] + CC[S+](CC)CC.O=S(=O)([N-]S(=O)(=O)C(F)(F)F)C(F)(F)F"
test_result = 1.35

[[record]]
compound = "CCCCCCCC [octane] + CC[S+](CC)CC.O=S(=O)([N-]S(=O)(=O)C(F)(F)F)C(F)(F)F"
test_result = 47.9


I'm hoping you can list activity coefficient for every compound here, please.
1. C1CCCCC1 [cyclohexane] + CC[S+](CC)CC.O=S(=O)([N-]S(=O)(=O)C(F)(F)F)C(F)(F)F
2. C1CCOC1 [tetrahydrofuran] + CC[S+](CC)CC.O=S(=O)([N-]S(=O)(=O)C(F)(F)F)C(F)(F)F
3. C=CCCCC [hex-1-ene] + CC[S+](CC)CC.O=S(=O)([N-]S(=O)(=O)C(F)(F)F)C(F)(F)F
4. C#CCCCC [1-hexyne] + CC[S+](CC)CC.O=S(=O)([N-]S(=O)(=O)C(F)(F)F)C(F)(F)F
5. C#CCCC [1-pentyne] + CC[S+](CC)CC.O=S(=O)([N-]S(=O)(=O)C(F)(F)F)C(F)(F)F

Marked response:
13.5
0.82
11.3
3.6
2.53

Numbers sourced from the NIST ThermoML archive (doi:10.1016/j.jct.2008.12.005).
